The origin of these recorded values is patent US20200270352A1.

target: human IGF-1R, native, on cells (MCF-7, hIGF-1R transfected cells, primary normal human cells) (human, UniProt P08069 31-1367); assay: cell-based or functional assay
endpoint: inhibition of hIGF-1R phosphorylation in response to IGF-1 (MCF-7 cells)

For reference, reported inhibition of hIGF-1R phosphorylation in response to IGF-1 (MCF-7 cells) for murine antibody 208F2 (hybridoma CNCM I-4757) (antibody, V domains shown, also called m208F2) VH: QVQLQQSGPELVKPGASVKMSCKASGYTFTSYYIYWVKQRPGQGLEWLGWIWPGDGSTKYNEKFKDKTTLTADKSSNTAYMFLSSLTSEDSAVYFCASPMITPNYAMDYWGQGASVTVSS VL: DIQMTQTTSSLSASLGDRVTISCRASQDISKYLNWYQQQPDGTIKLLIYYTSRLHSGVPSRFSGRGSGTDYSLTISNVEQEDIATYFCQQGSTLPYTFGGGTKLEIK stands at > 80%
